methodNotes: In vitro cytotoxicity by MTT assay, HEK 293
Assay type: cell-based, human
conditionLabel: human, HEK 293 cells, 33.33 μM, read-out: % cytotoxicity (100 − % cell survival) of HEK 293 cell line
Would you mind labelling by cytotoxicity at 72 h, 33.33 µM? At or over 40% is condition met, under is condition not met.

INPUT: Kindly determine if cytotoxicity at 72 h, 33.33 µM recorded for CC(=O)Nc1ccc(S(=O)(=O)Nc2nnc(S(=O)(=O)NC(=O)c3ccc(N)cc3)s2)cc1 [Compound 6c] is above or exactly 40%.
OUTPUT: condition not met

INPUT: Kindly determine if cytotoxicity at 72 h, 33.33 µM recorded for Nc1ccc(S(=O)(=O)Nc2nnc(S(=O)(=O)NC(=O)c3cccc([N+](=O)[O-])c3)s2)cc1 [Compound 7f] is above or exactly 40%.
OUTPUT: condition met

INPUT: Kindly determine if cytotoxicity at 72 h, 33.33 µM recorded for Nc1ccc(S(=O)(=O)Nc2nnc(S(=O)(=O)NC(=O)c3ccccc3N)s2)cc1 [Compound 7b] is above or exactly 40%.
OUTPUT: condition met

INPUT: Kindly determine if cytotoxicity at 72 h, 33.33 µM recorded for Nc1nnc(S(=O)(=O)NC(=O)c2ccccc2N)s1 [Compound 4b] is above or exactly 40%.
OUTPUT: condition met

INPUT: Kindly determine if cytotoxicity at 72 h, 33.33 µM recorded for CC(=O)Nc1ccc(S(=O)(=O)Nc2nnc(S(=O)(=O)NC(=O)c3cccc([N+](=O)[O-])c3)s2)cc1 [Compound 6f] is above or exactly 40%.
OUTPUT: condition met

INPUT: Kindly determine if cytotoxicity at 72 h, 33.33 µM recorded for O=C(NS(=O)(=O)c1nnc(N=Cc2ccco2)s1)c1ccccc1 [Compound 9j] is above or exactly 40%.
OUTPUT: condition not met

INPUT: Kindly determine if cytotoxicity at 72 h, 33.33 µM recorded for Nc1ccc(C(=O)NS(=O)(=O)c2nnc(NS(=O)(=O)c3ccc(N)cc3)s2)cc1 [Compound 7c] is above or exactly 40%.
OUTPUT: condition met

INPUT: Kindly determine if cytotoxicity at 72 h, 33.33 µM recorded for Nc1nnc(S(=O)(=O)NC(=O)c2ccccc2)s1 [Compound 4a] is above or exactly 40%.
OUTPUT: condition not met

INPUT: Kindly determine if cytotoxicity at 72 h, 33.33 µM recorded for Nc1ccc(S(=O)(=O)Nc2nnc(S(=O)(=O)NC(=O)c3ccc([N+](=O)[O-])cc3)s2)cc1 [Compound 7e] is above or exactly 40%.
OUTPUT: condition not met

INPUT: Kindly determine if cytotoxicity at 72 h, 33.33 µM recorded for Nc1ccc(C(=O)NS(=O)(=O)c2nnc(N)s2)cc1 [Compound 4c] is above or exactly 40%.
OUTPUT: condition met

INPUT: Kindly determine if cytotoxicity at 72 h, 33.33 µM recorded for CC(=O)Nc1ccc(S(=O)(=O)Nc2nnc(S(=O)(=O)NC(=O)c3ccccc3N)s2)cc1 [Compound 6b] is above or exactly 40%.
OUTPUT: condition met

INPUT: Kindly determine if cytotoxicity at 72 h, 33.33 µM recorded for Nc1ccc(S(=O)(=O)Nc2nnc(S(=O)(=O)NC(=O)c3ccccc3)s2)cc1 [Compound 7a] is above or exactly 40%.
OUTPUT: condition not met

INPUT: Kindly determine if cytotoxicity at 72 h, 33.33 µM recorded for CC(=O)Nc1ccc(S(=O)(=O)Nc2nnc(S(=O)(=O)NC(=O)c3ccc([N+](=O)[O-])cc3)s2)cc1 [Compound 6e] is above or exactly 40%.
OUTPUT: condition met

INPUT: Kindly determine if cytotoxicity at 72 h, 33.33 µM recorded for Nc1ccc(S(=O)(=O)Nc2nnc(S(=O)(=O)NC(=O)c3ccccc3O)s2)cc1 [Compound 7d] is above or exactly 40%.
OUTPUT: condition not met

INPUT: Kindly determine if cytotoxicity at 72 h, 33.33 µM recorded for O=C(NS(=O)(=O)c1nnc(N=Cc2ccc(O)cc2)s1)c1ccccc1 [Compound 9e] is above or exactly 40%.
OUTPUT: condition not met

INPUT: Kindly determine if cytotoxicity at 72 h, 33.33 µM recorded for Nc1nnc(S(=O)(=O)NC(=O)c2cccc([N+](=O)[O-])c2)s1 [Compound 4f] is above or exactly 40%.
OUTPUT: condition not met

INPUT: Kindly determine if cytotoxicity at 72 h, 33.33 µM recorded for Nc1nnc(S(=O)(=O)NC(=O)c2ccccc2O)s1 [Compound 4d] is above or exactly 40%.
OUTPUT: condition met

INPUT: Kindly determine if cytotoxicity at 72 h, 33.33 µM recorded for COc1ccc(C=Nc2nnc(S(=O)(=O)NC(=O)c3ccccc3)s2)cc1 [Compound 9d] is above or exactly 40%.
OUTPUT: condition not met

INPUT: Kindly determine if cytotoxicity at 72 h, 33.33 µM recorded for CC(=O)Nc1ccc(S(=O)(=O)Nc2nnc(S(=O)(=O)NC(=O)c3ccccc3)s2)cc1 [Compound 6a] is above or exactly 40%.
OUTPUT: condition not met

INPUT: Kindly determine if cytotoxicity at 72 h, 33.33 µM recorded for CC(=O)Nc1ccc(S(=O)(=O)Nc2nnc(S(=O)(=O)NC(=O)c3ccc(Cl)cc3)s2)cc1 [Compound 6g] is above or exactly 40%.
OUTPUT: condition not met

INPUT: Kindly determine if cytotoxicity at 72 h, 33.33 µM recorded for NS(=O)(=O)c1ccc(S(=O)(=O)Nc2cccc3c(Cl)c[nH]c23)cc1 [ISL, indisulam, reference compound] is above or exactly 40%.
OUTPUT: condition met

INPUT: Kindly determine if cytotoxicity at 72 h, 33.33 µM recorded for O=C(NS(=O)(=O)c1nnc(N=Cc2ccccc2)s1)c1ccccc1 [Compound 9a] is above or exactly 40%.
OUTPUT: condition met
